- System: EntF, enterobactin nonribosomal peptide synthetase (E. coli, UniProt P11454 1-1293)
- Sequence (P11454 whole entry): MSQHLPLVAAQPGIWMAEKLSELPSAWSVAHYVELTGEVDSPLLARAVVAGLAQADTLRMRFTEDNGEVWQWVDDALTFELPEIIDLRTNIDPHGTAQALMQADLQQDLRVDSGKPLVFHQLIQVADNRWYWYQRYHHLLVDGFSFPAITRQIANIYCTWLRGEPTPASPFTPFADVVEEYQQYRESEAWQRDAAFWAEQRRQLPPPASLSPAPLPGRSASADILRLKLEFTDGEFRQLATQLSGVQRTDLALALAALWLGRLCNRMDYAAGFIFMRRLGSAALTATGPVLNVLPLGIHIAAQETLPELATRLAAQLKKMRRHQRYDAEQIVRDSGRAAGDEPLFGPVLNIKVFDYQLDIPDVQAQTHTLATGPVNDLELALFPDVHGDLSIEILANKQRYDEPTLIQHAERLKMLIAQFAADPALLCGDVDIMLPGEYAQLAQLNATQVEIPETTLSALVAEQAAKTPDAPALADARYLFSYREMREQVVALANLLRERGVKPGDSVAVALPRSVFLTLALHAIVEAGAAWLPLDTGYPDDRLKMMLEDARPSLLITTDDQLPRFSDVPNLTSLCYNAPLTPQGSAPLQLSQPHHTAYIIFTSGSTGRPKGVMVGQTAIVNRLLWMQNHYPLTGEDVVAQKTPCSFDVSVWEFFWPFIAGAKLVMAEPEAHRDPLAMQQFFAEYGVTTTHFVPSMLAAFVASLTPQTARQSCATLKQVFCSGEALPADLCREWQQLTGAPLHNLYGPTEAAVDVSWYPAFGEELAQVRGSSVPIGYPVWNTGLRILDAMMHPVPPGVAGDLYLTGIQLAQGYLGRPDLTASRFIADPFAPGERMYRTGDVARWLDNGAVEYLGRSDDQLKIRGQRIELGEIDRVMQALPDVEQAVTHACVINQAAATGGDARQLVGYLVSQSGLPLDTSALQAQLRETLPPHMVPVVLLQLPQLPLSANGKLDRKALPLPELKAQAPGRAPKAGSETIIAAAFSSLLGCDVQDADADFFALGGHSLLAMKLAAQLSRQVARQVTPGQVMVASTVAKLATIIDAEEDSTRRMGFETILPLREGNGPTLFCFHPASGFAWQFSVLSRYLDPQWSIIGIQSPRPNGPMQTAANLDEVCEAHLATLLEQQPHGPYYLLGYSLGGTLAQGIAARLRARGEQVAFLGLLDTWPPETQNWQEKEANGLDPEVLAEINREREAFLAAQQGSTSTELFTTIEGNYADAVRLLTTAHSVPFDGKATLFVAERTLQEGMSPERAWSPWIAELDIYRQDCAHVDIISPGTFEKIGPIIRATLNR
- Protocol Text: ATP/PPi exchange rate against MLP concentration
Would you kindly list pKd for each of these binders?
Please express pKd as -log10 of the molar concentration.

Task: # input binder: CmnN, MbtH-like protein of capreomycin biosynthesis (purified, tag cleaved) (natural protein, Saccharothrix mutabilis subsp. capreolus, UniProt A6YEI5 1-62, looked up) MDTYLVVVNHEEQYSVWPADRPLPAGWRAEGTSGDKEQCLAHIETVWTDMRPLSVRRRAEAV ; wanted: its pKd
Result: 6.82

Task: Okay, and BSU31959, MbtH-like protein of corynebactin biosynthesis (purified, tag cleaved) (natural protein, Bacillus subtilis strain 168, UniProt C0H3Q6 1-69, looked up) MANPFENADGTYLVLVNEEGQYSLWPGFIDVPSGWTVVHEQKGREACLDYIQSHWSDMRPNSLKTVENV ?
Result: 6.51

Task: Then what about the binder MXAN_3118, orphan MbtH-like protein (purified, tag cleaved) (natural protein, Myxococcus xanthus DK1622, UniProt Q1D7Q2 1-71, looked up) MTDEREDTTVYKVVVNHEEQYSIWPADRENALGWKDAGKQGLKAECLEYIKEVWTDMRPLSLRKKMEELKS ?
Result: 6.78
